Target: CYP2D6 (Homo sapiens, UniProt P10635)
Construct: human liver microsomes (BD Gentest); tissue BD Gentest; host or cells: human liver microsomes
Sequence (P10635 whole entry): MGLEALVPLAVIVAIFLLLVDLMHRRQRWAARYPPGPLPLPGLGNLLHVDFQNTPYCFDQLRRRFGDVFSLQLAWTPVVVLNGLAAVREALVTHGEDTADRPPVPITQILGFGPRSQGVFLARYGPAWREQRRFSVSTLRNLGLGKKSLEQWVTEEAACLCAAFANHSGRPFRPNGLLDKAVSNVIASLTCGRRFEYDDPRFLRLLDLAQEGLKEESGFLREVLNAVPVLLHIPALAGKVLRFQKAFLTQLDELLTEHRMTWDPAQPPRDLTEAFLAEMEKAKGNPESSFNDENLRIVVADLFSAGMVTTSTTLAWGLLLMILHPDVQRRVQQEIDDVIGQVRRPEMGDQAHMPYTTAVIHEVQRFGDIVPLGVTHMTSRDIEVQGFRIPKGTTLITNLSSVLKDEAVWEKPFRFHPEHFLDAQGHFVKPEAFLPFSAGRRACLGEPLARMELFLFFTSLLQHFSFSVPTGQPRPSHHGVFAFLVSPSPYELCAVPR
Assay: in vitro
Type: in vitro ADME
Conditions: human, microsomes, pH 7.4
Description: Stock solutions of test compounds were assayed in 96-well format for their ability to inhibit CYP2C9, CYP2D6, or CYP3A4 mediated metabolism of test substrates. Luciferin-H was used as the substrate for CYP2C9; 3-[2-(N,N-diethyl-N-methylammonium)ethyl]-7-methoxy-4-methylcoumarin (AMMC) was used as the substrate for CYP2D6; 7-benzyloxyquiniline (BZQ) was used as the substrate for CYP3A4. […]
Use 20% as the dividing line for inhibition at 25 min, 2.2 µM, with the line itself on the label 1 side and lower values as label 0.

# Molecule, Class Assignment
records = [
    ("Cc1cc2c(NC(=O)N[C@@H]3CC(C)(C)Oc4cc(Cl)ccc43)cccc2cn1", "label 0"),
    ("Cc1cc2c(NC(=O)N[C@@H]3CC(C)(C)Oc4c(F)cccc43)cccc2cn1", "label 0"),
    ("Cc1cc2c(NC(=O)N[C@@H]3CC(C)(C)Oc4c3ccc(F)c4Cl)cccc2cn1", "label 0"),
    ("CC1(C)C[C@@H](NC(=O)Nc2cccc3cnccc23)c2ccc(C(F)(F)F)cc2O1", "label 1"),
    ("Cc1cc2c(NC(=O)N[C@@H]3CC(CF)(CF)Oc4c(F)cccc43)cccc2cn1", "label 0"),
    ("Cc1cc2c(NC(=O)N[C@@H]3C[C@](C)(CF)Oc4cc(Cl)ccc43)cccc2cn1 (single isomer, unassigned)", "label 0"),
    ("Cc1cc2c(NC(=O)N[C@@H]3CC(CF)(CF)Oc4c(F)cc(F)cc43)cccc2cn1", "label 0"),
    ("Cc1cc2c(NC(=O)N[C@@H]3CC(C)(C)Oc4cc(C(F)(F)F)ccc43)cccc2cn1", "label 1"),
    ("Cc1cc2c(NC(=O)N[C@@H]3C[C@@](C)(C(F)F)Oc4cc(Cl)ccc43)cccc2cn1 (single isomer, unassigned)", "label 0"),
    ("Cc1cc2c(NC(=O)N[C@@H]3CC(C)(C)Oc4cc(F)ccc43)c(F)ccc2cn1", "label 1"),
    ("Cc1cc2c(NC(=O)N[C@@H]3CC(CF)(CF)Oc4c(Cl)cccc43)cccc2cn1", "label 0"),
    ("CCC1(CC)C[C@@H](NC(=O)Nc2cccc3cnccc23)c2cc(F)ccc2O1", "label 1"),
]
